Target: T1, human galectin-10-His (recombinant human galectin-10 with TEV-cleavable N-terminal His-tag) (human)
T1 construct: SEC-MALLS: dimer in solution; also called Gal10-His; humanGal10-His
T1 chain: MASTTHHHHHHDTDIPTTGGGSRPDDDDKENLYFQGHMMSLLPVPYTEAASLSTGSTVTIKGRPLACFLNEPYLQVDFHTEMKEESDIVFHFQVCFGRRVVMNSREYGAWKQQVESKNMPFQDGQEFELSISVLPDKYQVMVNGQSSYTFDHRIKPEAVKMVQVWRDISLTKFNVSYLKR
Test: BLI tandem on galectin-10-His; competitor: saturating 1D11 mIgG1 (10 ug/mL)
For each entry below, report its binding signal (nm) value.
Numbers only, in nm.

Look over these answered cases.
Binder	binding signal (nm)
1C09 mouse IgG1 (antibody, V domains shown, VH on mouse IgG1 heavy chain constant domains (CH1-CH2-CH3), VL on mouse lambda light chain constant domain; also called 1C09 mIgG1) VH: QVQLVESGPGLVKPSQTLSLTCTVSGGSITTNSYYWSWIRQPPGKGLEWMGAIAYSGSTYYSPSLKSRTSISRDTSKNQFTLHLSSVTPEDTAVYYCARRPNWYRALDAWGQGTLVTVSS VL: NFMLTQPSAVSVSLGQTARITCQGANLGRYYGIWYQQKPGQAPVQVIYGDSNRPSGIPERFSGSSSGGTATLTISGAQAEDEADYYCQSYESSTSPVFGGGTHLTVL	0.1
1D11 mouse IgG1 (antibody, V domains shown, VH on mouse IgG1 heavy chain constant domains (CH1-CH2-CH3), VL on mouse lambda light chain constant domain; also called 1D011; 1D11 mIgG1) VH: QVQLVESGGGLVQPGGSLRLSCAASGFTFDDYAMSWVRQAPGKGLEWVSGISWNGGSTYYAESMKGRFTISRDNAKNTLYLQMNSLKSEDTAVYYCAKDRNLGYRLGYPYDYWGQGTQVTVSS VL: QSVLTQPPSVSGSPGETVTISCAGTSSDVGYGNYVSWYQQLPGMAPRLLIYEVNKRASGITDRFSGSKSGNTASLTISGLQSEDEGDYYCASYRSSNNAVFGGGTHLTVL	0.06
2C07 mouse IgG1 (antibody, V domains shown, VH on mouse IgG1 heavy chain constant domains (CH1-CH2-CH3), VL on mouse lambda light chain constant domain; also called 2C07 mIgG1) VH: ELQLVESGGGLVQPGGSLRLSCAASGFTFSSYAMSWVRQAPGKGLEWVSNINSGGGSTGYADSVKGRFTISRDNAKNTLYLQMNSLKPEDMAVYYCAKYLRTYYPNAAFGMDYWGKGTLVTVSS VL: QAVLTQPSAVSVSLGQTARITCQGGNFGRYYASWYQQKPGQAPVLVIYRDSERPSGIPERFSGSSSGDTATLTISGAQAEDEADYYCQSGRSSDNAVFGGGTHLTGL	0.04

Can you share its binding signal (nm)? I mean this binder: 6E10 mouse IgG1 (antibody, V domains shown, also called 6E010; 6E10 mIgG1) VH: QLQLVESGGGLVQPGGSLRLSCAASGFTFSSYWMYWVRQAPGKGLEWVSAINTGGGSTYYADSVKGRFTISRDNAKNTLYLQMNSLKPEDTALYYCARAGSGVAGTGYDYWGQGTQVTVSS VL: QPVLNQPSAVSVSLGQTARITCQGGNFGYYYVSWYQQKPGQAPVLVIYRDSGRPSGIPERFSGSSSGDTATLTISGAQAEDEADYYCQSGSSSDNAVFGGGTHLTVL
0.1
